experiment: Reversal of multidrug resistance in human 2780AD cells assessed as accumulation of calcein at 25 ug/mL after 15 mins by fluorescence technique relative to verapamil; type: functional, A2780 ADR
property.name: Activity (%)

| compound.smiles | property.name | test.result |
| --- | --- | --- |
| COc1cc(C[C@@H]2C(=O)OC[C@H]2Cc2ccc3c(c2)OCO3)cc2c1OCO2 | Activity | 86 |
| COc1cc(C[C@@H]2C(=O)OC[C@H]2Cc2cc(OC)c3c(c2)OCO3)cc(OC)c1O | Activity | 97 |
| COc1cc(C[C@@H](CO)[C@H](CO)Cc2cc(OC)c3c(c2)OCO3)cc2c1OCO2 | Activity | 91 |
| COc1cc([C@@H](O)[C@H]2C(=O)OC[C@@H]2Cc2cc(OC)c3c(c2)OCO3)cc(OC)c1O | Activity | 78 |
| COc1cc(C[C@@H]2C(=O)OC[C@H]2Cc2cc(OC)c3c(c2)OCO3)cc(O)c1O | Activity | 84 |
| COc1cc(C[C@@H]2C(=O)OC[C@H]2Cc2cc(OC)c3c(c2)OCO3)ccc1O | Activity | 64 |
| COc1cc(C[C@@H]2C(=O)OC[C@H]2Cc2cc(OC)c3c(c2)OCO3)cc(OC)c1OC | Activity | 116 |
| COc1cc(C[C@@H]2COC(=O)[C@H]2Cc2cc(OC)c3c(c2)OCO3)cc2c1OCO2 | Activity | 81 |
| COc1cc(C[C@@H]2COC(=O)[C@H]2Cc2ccc3c(c2)OCO3)cc2c1OCO2 | Activity | 67 |
| COc1cc(/C=C2/C(=O)OC[C@H]2Cc2cc(OC)c3c(c2)OCO3)cc(OC)c1O | Activity | 86 |
| COc1cc(C[C@@H]2C(=O)OC[C@H]2Cc2ccc3c(c2)OCO3)cc(OC)c1O | Activity | 96 |
